target: CCR2 (Homo sapiens (Human), UniProt P41597)
Sequence (P41597 whole entry, species assumed): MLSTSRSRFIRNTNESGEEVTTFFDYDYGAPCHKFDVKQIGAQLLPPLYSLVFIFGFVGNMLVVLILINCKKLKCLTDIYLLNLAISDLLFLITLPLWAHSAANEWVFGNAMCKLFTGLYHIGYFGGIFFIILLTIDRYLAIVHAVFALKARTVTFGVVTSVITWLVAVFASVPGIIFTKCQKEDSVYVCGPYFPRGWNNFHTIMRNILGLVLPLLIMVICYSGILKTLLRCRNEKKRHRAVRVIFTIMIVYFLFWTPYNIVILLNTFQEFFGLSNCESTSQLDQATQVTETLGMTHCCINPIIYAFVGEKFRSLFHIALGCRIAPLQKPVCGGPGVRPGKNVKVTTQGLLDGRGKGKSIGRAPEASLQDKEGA
protocol description: Calcium activity assayed on the FLIPR Tetra in HEK-Gqi5 cells stably expressing CCR2
applied conditions: FLIPR Tetra calcium assay
property name: IC50 (nM)

COc1cccc(CSc2ccc(Cl)cc2NS(=O)(=O)c2cc3ccccc3o2)c1 ... 651
CSc1ccc(Cl)cc1NS(=O)(=O)c1ccco1 ... 940
CCOC(=O)C[S+]([O-])c1ccc(Cl)cc1NS(=O)(=O)c1ccc(Cl)c(C(F)(F)F)c1 (stereo not shown) ... 141
O=S(=O)(Cc1cccc[n+]1[O-])c1ccc(Cl)cc1NS(=O)(=O)c1cc2ccccc2o1 ... 663
C[S+]([O-])c1ccc(Cl)cc1NS(=O)(=O)c1ccc(Cl)cc1 (stereo not shown) ... 62
NC(=O)NCC[S+]([O-])c1ccc(Cl)cc1NS(=O)(=O)c1cc2ccccc2o1 (stereo not shown) ... 1890
Nc1cccc(CSc2ccc(Cl)cc2NS(=O)(=O)c2ccc(F)cc2F)c1 ... 3240
CN(C)C(=O)CSc1ccc(Cl)cc1NS(=O)(=O)c1ccc(Cl)c(C(F)(F)F)c1 ... 118
CC(C)NC(=O)CC[S+]([O-])c1ccc(Cl)cc1NS(=O)(=O)c1ccc(Cl)c(C(F)(F)F)c1 (stereo not shown) ... 1790
CC(=O)Nc1nc(CSc2ccc(Cl)cc2NS(=O)(=O)c2cc3ccccc3o2)cs1 ... 848
